- ASSAY INFO: PK of compound of Formula (Ia) after single subcutaneous dose of solution formulations in beagle dogs
- Format: in vivo
- MEASUREMENT PARAMETERS: male, beagle, dog, plasma, sc, 12 mg/kg, beagle dogs, SC 12 mg/kg, 400 mg/mL solution Z (3.13% poloxamer 188), 336 h, Mean n = 3
VALUE TYPE: concentration at 336 h (nM)

[[record]]
molecule = "CC(C)(C#Cc1ccc(-c2ccc(Cl)c3c(NS(C)(=O)=O)nn(CC(F)(F)F)c23)c([C@H](Cc2cc(F)cc(F)c2)NC(=O)Cn2nc(C(F)(F)F)c3c2C(F)(F)[C@@H]2C[C@H]32)n1)S(C)(=O)=O [compound of Formula (Ia)]"
result_value = 172


---

- ASSAY INFO: PK of compound of Formula (Ia) after single subcutaneous dose of solution formulations in beagle dogs
- Type: in vivo
- MEASUREMENT PARAMETERS: male, beagle, dog, plasma, sc, 12 mg/kg, mean ± SD, n = 3 dogs; SC 12 mg/kg; solution W, 400 mg/mL
VALUE TYPE: Cmax (nM)

[[record]]
compound = "CC(C)(C#Cc1ccc(-c2ccc(Cl)c3c(NS(C)(=O)=O)nn(CC(F)(F)F)c23)c([C@H](Cc2cc(F)cc(F)c2)NC(=O)Cn2nc(C(F)(F)F)c3c2C(F)(F)[C@@H]2C[C@H]32)n1)S(C)(=O)=O [compound of Formula (Ia)]"
value_type = "Cmax"
display_unit = "nM"
result_value = 200


---

- ASSAY INFO: PK of compound of Formula (Ia) after single subcutaneous dose of solution formulations in Wistar Han rats
- Assay type: in vivo
- MEASUREMENT PARAMETERS: male, Wistar Han, rat, plasma, sc, 50 mg/kg, mean ± SD, n = 3 rats; SC 50 mg/kg; solution R, 400 mg/mL; read-out: AUC0-168h
- Method: Formulations containing the compound of Formula (Ia), or a pharmaceutically acceptable salt thereof, were prepared as solutions and optionally administered subcutaneously or intramuscularly to rats, rabbits, and/or dogs. A solution of about 400 mg/mL of the compound of Formula (Ia) having 19.14 w/w % water, 40.66 w/w % PEG 300, 35.20 w/w % of a sodium salt of a compound of Formula (Ia), and 5.00% ethanol was prepared. […]
VALUE TYPE: AUC(0-t) (µM·h)

[[record]]
structure_string = "CC(C)(C#Cc1ccc(-c2ccc(Cl)c3c(NS(C)(=O)=O)nn(CC(F)(F)F)c23)c([C@H](Cc2cc(F)cc(F)c2)NC(=O)Cn2nc(C(F)(F)F)c3c2C(F)(F)[C@@H]2C[C@H]32)n1)S(C)(=O)=O"
value_type = "AUC(0-t)"
display_unit = "µM·h"
result_value = 25.2


---

- ASSAY INFO: PK of compound of Formula (Ia) after single subcutaneous dose of solution formulations in beagle dogs
- Assay type: in vivo
- MEASUREMENT PARAMETERS: male, beagle, dog, plasma, sc, 12 mg/kg, beagle dogs, SC 12 mg/kg, 400 mg/mL solution Z (3.13% poloxamer 188), 168 h, Mean n = 3
VALUE TYPE: concentration at 168 h (µM)

[[record]]
structure_string = "CC(C)(C#Cc1ccc(-c2ccc(Cl)c3c(NS(C)(=O)=O)nn(CC(F)(F)F)c23)c([C@H](Cc2cc(F)cc(F)c2)NC(=O)Cn2nc(C(F)(F)F)c3c2C(F)(F)[C@@H]2C[C@H]32)n1)S(C)(=O)=O"
value_type = "concentration at 168 h"
display_unit = "µM"
result_value = 0.0606

